- assayed target: Epidermal growth factor receptor (Homo sapiens)
- Sequence (P00533 whole entry): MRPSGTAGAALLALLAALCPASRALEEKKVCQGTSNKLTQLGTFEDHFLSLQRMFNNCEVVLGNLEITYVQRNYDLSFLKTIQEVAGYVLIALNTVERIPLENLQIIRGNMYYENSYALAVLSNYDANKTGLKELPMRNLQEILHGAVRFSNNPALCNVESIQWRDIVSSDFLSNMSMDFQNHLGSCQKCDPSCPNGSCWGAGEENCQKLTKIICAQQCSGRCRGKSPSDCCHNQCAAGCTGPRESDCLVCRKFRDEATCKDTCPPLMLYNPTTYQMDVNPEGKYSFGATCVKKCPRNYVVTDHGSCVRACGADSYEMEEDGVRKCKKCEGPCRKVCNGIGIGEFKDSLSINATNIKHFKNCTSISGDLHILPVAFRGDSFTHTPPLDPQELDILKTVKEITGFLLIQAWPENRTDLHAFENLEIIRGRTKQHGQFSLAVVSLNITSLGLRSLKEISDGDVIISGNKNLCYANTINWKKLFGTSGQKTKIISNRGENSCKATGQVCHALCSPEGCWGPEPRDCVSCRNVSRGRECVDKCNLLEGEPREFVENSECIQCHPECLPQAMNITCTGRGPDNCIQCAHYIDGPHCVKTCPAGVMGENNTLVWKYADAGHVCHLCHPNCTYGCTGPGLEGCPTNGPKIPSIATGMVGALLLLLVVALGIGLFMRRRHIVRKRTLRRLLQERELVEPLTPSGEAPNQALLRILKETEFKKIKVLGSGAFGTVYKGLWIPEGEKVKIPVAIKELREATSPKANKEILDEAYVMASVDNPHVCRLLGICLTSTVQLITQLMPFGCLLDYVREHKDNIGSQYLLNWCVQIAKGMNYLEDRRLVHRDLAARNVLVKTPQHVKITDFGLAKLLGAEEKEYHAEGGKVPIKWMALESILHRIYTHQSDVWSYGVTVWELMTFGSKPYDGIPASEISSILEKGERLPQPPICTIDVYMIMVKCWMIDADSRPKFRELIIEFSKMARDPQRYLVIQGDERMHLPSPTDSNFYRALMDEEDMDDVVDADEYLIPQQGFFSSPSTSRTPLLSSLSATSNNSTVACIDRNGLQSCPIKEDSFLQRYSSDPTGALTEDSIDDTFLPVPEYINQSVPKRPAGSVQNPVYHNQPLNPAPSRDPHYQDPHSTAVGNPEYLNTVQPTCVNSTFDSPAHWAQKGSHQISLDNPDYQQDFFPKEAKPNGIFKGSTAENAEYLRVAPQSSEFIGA
- method notes: Biochemical Assays for Inhibition of Wild-Type and Mutant EGFRs
pIC50: −log10 of the molar value.
assay metric: pIC50

Cc1c2c(nn1CCN1CCCC1)CN(C)C[C@H](C)Oc1c(cnn1C)-c1ccc3[nH]nc(c3c1)/C=C/2 = 7.19
Cc1nn(C)c2c1/C=C/c1n[nH]c3ccc(cc13)-c1cnn(C)c1CN(C)C[C@H](C)O2 (single isomer, unassigned) = 6.38

A. CCc1nn(C)c2c1/C=C/c1n[nH]c3ccc(cc13)-c1cnn(C)c1OCCCO2
B. Cc1c2c(nn1[C@H]1CCN(C)C[C@@H]1O)OCCCOc1c(cnn1C)-c1ccc3[nH]nc(c3c1)/C=C/2 (racemic)
I'm curious whether A or B has the smaller pIC50 number. Which is it? // return label of chosen record
A
(A: 6.01, B: 7.21)

a. Cc1ccc2c(n1)/C=C/c1n[nH]c3ccc(cc13)-c1cnn(C)c1O[C@@H](C)CCO2
b. CCOc1nn(CCO)c2c1/C=C/c1n[nH]c3ccc(cc13)-c1cnn(C)c1OC1CCCN(C2)C1C (stereo not drawn)
Please indicate which entry, a or b , has the lower recorded pIC50 value. Write down the label of the entry you select.
a
(a: 5.97, b: 6.42)

a. Cc1c2c(nn1CCN1CCCC1)OCCOC(C)c1c(cnn1C)-c1ccc3[nH]nc(c3c1)/C=C/2 (stereo not drawn)
b. CCOc1nn(CCO)c2c1/C=C/c1n[nH]c3ccc(cc13)-c1cnn(C)c1O[C@H](C)[C@H]1CCCN1C2 (single isomer, unassigned)
Endpoint returns the identifier whose pIC50 is numerically larger, either a or b . # reply format: chosen label
b

====

- assayed target: Epidermal growth factor receptor [L858R,T790M,C797S] (Homo sapiens, UniProt P00533, C797S/L858R/T790M)
- Sequence (P00533 25-1210 T790M/C797S/L858R limits assumed): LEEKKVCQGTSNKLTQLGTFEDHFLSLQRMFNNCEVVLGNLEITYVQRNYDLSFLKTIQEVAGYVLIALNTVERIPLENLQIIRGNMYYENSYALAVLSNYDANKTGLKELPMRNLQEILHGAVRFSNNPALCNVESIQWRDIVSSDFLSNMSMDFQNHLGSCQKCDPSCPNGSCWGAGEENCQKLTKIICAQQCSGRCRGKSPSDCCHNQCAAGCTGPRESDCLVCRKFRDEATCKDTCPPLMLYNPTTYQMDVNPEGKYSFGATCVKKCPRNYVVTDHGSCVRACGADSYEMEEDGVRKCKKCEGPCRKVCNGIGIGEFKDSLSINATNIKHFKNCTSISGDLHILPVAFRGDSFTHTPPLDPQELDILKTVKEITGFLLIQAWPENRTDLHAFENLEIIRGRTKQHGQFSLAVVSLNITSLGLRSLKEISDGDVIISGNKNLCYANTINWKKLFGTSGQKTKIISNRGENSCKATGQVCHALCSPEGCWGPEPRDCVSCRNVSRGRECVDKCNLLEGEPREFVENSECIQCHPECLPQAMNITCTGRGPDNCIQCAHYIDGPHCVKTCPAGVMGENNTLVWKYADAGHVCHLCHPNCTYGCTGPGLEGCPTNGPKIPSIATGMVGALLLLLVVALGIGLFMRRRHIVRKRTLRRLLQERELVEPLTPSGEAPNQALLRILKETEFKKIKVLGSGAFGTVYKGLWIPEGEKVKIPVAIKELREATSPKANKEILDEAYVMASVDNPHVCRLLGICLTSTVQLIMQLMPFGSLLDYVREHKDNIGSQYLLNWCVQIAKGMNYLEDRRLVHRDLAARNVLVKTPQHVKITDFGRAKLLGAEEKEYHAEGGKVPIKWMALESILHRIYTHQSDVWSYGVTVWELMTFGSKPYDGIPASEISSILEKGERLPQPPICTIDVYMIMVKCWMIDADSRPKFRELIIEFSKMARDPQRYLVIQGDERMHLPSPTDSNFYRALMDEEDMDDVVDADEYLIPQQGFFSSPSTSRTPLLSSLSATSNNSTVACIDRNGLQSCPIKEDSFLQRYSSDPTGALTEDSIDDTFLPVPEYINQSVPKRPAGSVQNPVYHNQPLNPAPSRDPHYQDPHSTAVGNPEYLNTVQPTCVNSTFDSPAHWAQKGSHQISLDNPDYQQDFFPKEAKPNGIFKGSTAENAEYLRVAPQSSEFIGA
- method notes: Biochemical Assays for Inhibition of Wild-Type and Mutant EGFRs
pIC50: −log10 of the molar value.
assay metric: pIC50

Would you please look over these solved cases?
Cc1ccc2c(n1)/C=C/c1n[nH]c3ccc(cc13)-c1cnn(C)c1O[C@@H](C)CCO2 = 7.45
CCOc1nn(CCO)c2c1/C=C/c1n[nH]c3ccc(cc13)-c1cnn(C)c1OC1CCCN(C2)C1C (centres undefined) = 8.31
CCc1nn(C)c2c1/C=C/c1n[nH]c3ccc(cc13)-c1cnn(C)c1OCCCO2 = 7.37
Cc1c2c(nn1[C@H]1CCN(C)C[C@@H]1O)OCCCOc1c(cnn1C)-c1ccc3[nH]nc(c3c1)/C=C/2 (racemic) = 8.28
CCOc1nn(CCO)c2c1/C=C/c1n[nH]c3ccc(cc13)-c1cnn(C)c1O[C@H](C)[C@H]1CCCN1C2 (single isomer, unassigned) = 9.55
Cc1nn(C)c2c1/C=C/c1n[nH]c3ccc(cc13)-c1c(C)nn(C)c1OCCN(C)C2 = 6.77
Cc1nn(C)c2c1/C=C/c1n[nH]c3ccc(cc13)-c1cnn(C)c1CN(C)C[C@H](C)O2 (single isomer, unassigned) = 7.55

1. Cc1c2c(nn1CCN1CCCC1)CN(C)C[C@H](C)Oc1c(cnn1C)-c1ccc3[nH]nc(c3c1)/C=C/2
2. Cc1c2c(nn1CCN1CCCC1)OCCOC(C)c1c(cnn1C)-c1ccc3[nH]nc(c3c1)/C=C/2 (centres undefined)
Which has the smaller recorded pIC50, 1 or 2 ? Output the label that corresponds to your choice.
2
